The reported measurements were obtained from patent US12410179B2.

Subject Of Test: TNFα (Homo sapiens)
Protocol Description: HEK-Blue hTNFα reporter assay
Type: cell-based
Design: purchased R&D biosystem (R&D Systems) 210-TA-020/CF
Run Conditions: HEK-Blue hTNFα reporter cells, SEAP readout; read-out: IC50 Range

Compound: [2H]C([2H])([2H])N1C(=O)c2cccc(OC(F)F)c2[C@H]2C[C@@H]1c1nn3cc(F)c(-c4cnc(C(C)(C)N)nc4)cc3c12 [Example 294]
Subject Of Test: TNFα (Homo sapiens)
IC50: < 25 nM
--
Compound: [2H]C([2H])([2H])N1C(=O)c2cccc(OC(F)F)c2[C@H]2C[C@@H]1c1nn3cc(C)c(-c4cnc(C(C)(C)N)nc4)cc3c12 [Example 300]
Subject Of Test: TNFα (Homo sapiens)
IC50: < 25 nM
--
Compound: [2H]C([2H])([2H])N1C(=O)c2cccc(OC(F)F)c2[C@H]2C[C@@H]1c1nn3cc(C)c(-c4cnc([C@]5(N)C[C@@](C)(O)C5)nc4)cc3c12 [Example 201]
Subject Of Test: TNFα (Homo sapiens)
IC50: < 25 nM

---

Subject Of Test: TNFα (Homo sapiens, UniProt P01375)
Sequence (P01375 77-233 limits assumed): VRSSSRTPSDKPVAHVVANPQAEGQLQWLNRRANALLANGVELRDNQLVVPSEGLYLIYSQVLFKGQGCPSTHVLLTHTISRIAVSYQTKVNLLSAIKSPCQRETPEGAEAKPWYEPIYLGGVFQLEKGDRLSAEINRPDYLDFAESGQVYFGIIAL
Protocol Description: Human dermal fibroblast cell potency assay (IL-8 HTRF)
Type: cell-based
Parameters: purchased R&D biosystem (R&D Systems) 210-TA-020/CF
Run Conditions: human dermal fibroblasts, hTNFα 10 ng/mL, 24 h; read-out: HDF_IL-8, IC50
Below, each of the molecules is paired with its reported IC50 value.
Measure: IC50 (nM)

Molecule: CN1C(=O)c2cccc(OC(F)F)c2[C@H]2C[C@@H]1c1nc3ccc(-c4cnc(C5(N)CCC5)nc4)cc3n12 [Comp. Ex #1, reference compound]
Subject Of Test: TNFα (Homo sapiens, UniProt P01375)
Measure: IC50
Data Value: 6.7
//
Molecule: CN1C(=O)c2cccc(OC(F)F)c2[C@H]2C[C@@H]1c1nn3ccc(-c4cnc(C5(N)CCC5)nc4)cc3c12 [Example 15]
Subject Of Test: TNFα (Homo sapiens, UniProt P01375)
Measure: IC50
Data Value: 2.8

---

Subject Of Test: TNFα (Homo sapiens, UniProt P01375)
Protocol Description: HEK-Blue hTNFα reporter assay
Format: cell-based
Design: purchased R&D biosystem (R&D Systems) 210-TA-020/CF
Run Conditions: HEK-Blue hTNFα reporter cells, SEAP readout; read-out: IC50 Range
pIC50: −log10 of the molar value.

Molecule: CN1C(=O)c2ccc(OC(F)F)nc2[C@H]2C[C@@H]1c1nn3ccc(-c4cnc([C@]5(O)C[C@@](C)(O)C5)nc4)cc3c12 [Example 321]
pIC50: 7.00 to 7.60
--
Molecule: [2H]C([2H])([2H])N1C(=O)c2cccc(OC(F)F)c2[C@H]2C[C@@H]1c1nn3cc(F)c(-c4cnc([C@]5(N)C[C@@](C)(O)C5)c(F)c4)nc3c12 [Example 188]
pIC50: > 7.60
--
Molecule: [2H]C([2H])([2H])N1C(=O)c2cccc(OC(F)F)c2[C@H]2C[C@@H]1c1nn3ccc(-c4cnc(C(C)(C)N)nc4)nc3c12 [Example 286]
pIC50: > 7.60
--
Molecule: CN1C(=O)c2cccc(OC(F)F)c2[C@H]2C[C@@H]1c1nn3ccc(-c4cnc(C5(N)CC5)nc4)cc3c12 [Example 17]
pIC50: > 7.60
--
Molecule: C[C@]1(C#N)C[C@](N)(c2ncc(-c3nc4c5c(nn4cc3F)[C@H]3C[C@@H]5c4c(OC(F)F)cccc4C(=O)N3)cc2F)C1 [Example 174]
pIC50: > 7.60
--
Molecule: C[C@H](O)c1ncc(-c2ccn3nc4c(c3c2)[C@@H]2C[C@H]4N(C)C(=O)c3cccc(OC(F)F)c32)cn1 [Example 93]
pIC50: > 7.60
--
Molecule: [2H]C([2H])([2H])N1C(=O)c2cccc(OC(F)F)c2[C@H]2C[C@@H]1c1nn3ccc(-c4cnc([C@@](C)(O)CC#N)nc4)cc3c12 [Example 89]
pIC50: > 7.60
--
Molecule: [2H]C([2H])([2H])N1C(=O)c2cccc(OC(F)F)c2[C@H]2C[C@@H]1c1nn3ccc(-c4cnc(C5(N)CC5)cn4)cc3c12 [Example 266]
pIC50: > 7.60
--
Molecule: CN1C(=O)c2cccc(OC(F)F)c2[C@H]2C[C@@H]1c1nn3ccc(-c4cnc([C@@](C)(O)CO)nc4)cc3c12 [Example 84]
pIC50: > 7.60
--
Molecule: CN1C(=O)c2cccc(OC(F)F)c2[C@H]2C[C@@H]1c1nn3ccc(-c4cnc(S(=N)(=O)C5CC5)nc4)cc3c12 (stereo partly drawn) [Example 92]
pIC50: 7.00 to 7.60
--
Molecule: [2H]C([2H])([2H])N1C(=O)c2cccc(OC(F)F)c2[C@H]2C[C@@H]1c1nn3ccc(-c4cnc(C5(N)CCC5)nc4C)cc3c12 [Example 241]
pIC50: > 7.60
--
Molecule: CN1C(=O)c2cccc(OC(F)F)c2[C@H]2C[C@@H]1c1nn3ccc(-c4ncc([C@]5(O)C[C@@](C)(O)C5)cn4)cc3c12 [Example 142]
pIC50: > 7.60

---

Subject Of Test: TNFα (Homo sapiens, UniProt P01375)
Protocol Description: HEK-Blue hTNFα reporter assay
Type: cell-based
Design: purchased R&D biosystem (R&D Systems) 210-TA-020/CF
Run Conditions: HEK-Blue hTNFα reporter cells, SEAP readout; read-out: IC50 Range
Recorded measurements of IC50, one per entry

Structure As Smiles: C[C@]1(O)C[C@](N)(c2ccc(-c3ccn4nc5c(c4n3)[C@@H]3C[C@H]5NC(=O)c4cccc(OC(F)F)c43)cn2)C1
IC50: 25 to 100 nM
//
Structure As Smiles: [2H]C([2H])([2H])N1C(=O)c2cccc(OC(F)F)c2[C@H]2C[C@@H]1c1nn3cc(F)c(-c4cnc(C5(N)CC(F)(F)C5)nc4)nc3c12
IC50: < 25 nM
//
Structure As Smiles: [2H]C([2H])([2H])N1C(=O)c2cccc(OC(F)F)c2[C@H]2C[C@@H]1c1nn3cc(F)c(-c4cnc([C@]5(N)C[C@@H](C#N)C5)nc4)nc3c12
IC50: < 25 nM
//
Structure As Smiles: C[C@]1(O)C[C@](O)(c2ncc(-c3ccn4nc5c(c4c3)[C@@H]3C[C@H]5NC(=O)c4cccc(OC(F)F)c43)cn2)C1
IC50: < 25 nM
//
Structure As Smiles: CN1C(=O)c2cccc(OC(F)F)c2[C@H]2C[C@@H]1c1nn3ccc(-c4cnc(C5(O)CCOCC5)nc4)cc3c12
IC50: < 25 nM
//
Structure As Smiles: C[C@]1(C#N)C[C@](N)(c2ncc(-c3nc4c5c(nn4cc3F)[C@H]3C[C@@H]5c4c(OC(F)F)cccc4C(=O)N3)cn2)C1
IC50: < 25 nM
//
Structure As Smiles: CN1C(=O)c2cccc(OC(F)F)c2[C@H]2C[C@@H]1c1nn3ccc(-c4cnc([C@]5(O)C[C@](O)(C(F)F)C5)nc4)cc3c12
IC50: < 25 nM
//
Structure As Smiles: [2H]C([2H])([2H])N1C(=O)c2cccc(OC(F)F)c2[C@H]2C[C@@H]1c1nn3ccc(-c4cnc([C@@]5(N)CCOC5)nc4)nc3c12
IC50: 25 to 100 nM
//
Structure As Smiles: [2H]C([2H])([2H])N1C(=O)c2cccc(OC(F)F)c2[C@H]2C[C@@H]1c1nn3ccc(-c4cnc([C@]5(O)C[C@@](C)(N)C5)nc4)cc3c12
IC50: < 25 nM
//
Structure As Smiles: [2H]C([2H])([2H])N1C(=O)c2cccc(OC(F)F)c2[C@H]2C[C@@H]1c1nn3cc(F)c(-c4cnc(C5(N)CCC5)cn4)cc3c12
IC50: < 25 nM
//
Structure As Smiles: [2H]C([2H])([2H])N1C(=O)c2cccc(OC(F)F)c2[C@H]2C[C@@H]1c1nn3ccc(-c4cnc([C@]5(C#N)C[C@](C)(N)C5)nc4)nc3c12
IC50: 100 to 1000 nM
//
Structure As Smiles: [2H]C([2H])([2H])N1C(=O)c2cccc(OC(F)F)c2[C@H]2C[C@@H]1c1nn3ccc(-c4cnc(C(C)(C)N)c(F)c4)nc3c12
IC50: < 25 nM

---

pIC50 values by entry
Subject Of Test: TNFα (Homo sapiens)
Protocol Description: HEK-Blue hTNFα reporter assay
Format: cell-based
Design: purchased R&D biosystem (R&D Systems) 210-TA-020/CF
Run Conditions: HEK-Blue hTNFα reporter cells, SEAP readout; read-out: IC50 Range
pIC50: −log10 of the molar value.

Structure As Smiles: [2H]C([2H])([2H])N1C(=O)c2ccc(F)c(OC(F)F)c2[C@H]2C[C@@H]1c1nn3ccc(-c4cnc([C@]5(N)C[C@@](C)(O)C5)c(F)c4)nc3c12
pIC50: > 7.60

Structure As Smiles: [2H]C([2H])([2H])N1C(=O)c2cccc(OC(F)F)c2[C@H]2C[C@@H]1c1nn3ccc(-c4cnc(C5(N)CC5)nc4)nc3c12
pIC50: > 7.60

Structure As Smiles: [2H]C([2H])([2H])N1C(=O)c2cccc(OC(F)F)c2[C@H]2C[C@@H]1c1nn3ccc(-c4cnc(C5(N)CC5)nc4)cc3c12
pIC50: > 7.60
